Would you kindly list kd (1/s) cyBCMA @37° C. for each of these molecules?
# Assay target: cyBCMA
# Test details: Kinetics and affinity of cyBCMA/human IgG interactions by SPR (Bio-Rad Proteon XPR36)
# Assay type: binding, cynomolgus
# Run parameters: 37° C.
Give bare numbers, in s⁻¹.

Molecule	kd (1/s) cyBCMA @37° C. / s⁻¹
L3.PY/H2.LT: anti-BCMA antibody (antibody, V domains shown) VH: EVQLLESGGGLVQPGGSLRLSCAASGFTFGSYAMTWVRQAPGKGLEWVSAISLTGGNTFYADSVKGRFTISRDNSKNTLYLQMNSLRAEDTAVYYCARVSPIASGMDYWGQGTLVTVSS VL: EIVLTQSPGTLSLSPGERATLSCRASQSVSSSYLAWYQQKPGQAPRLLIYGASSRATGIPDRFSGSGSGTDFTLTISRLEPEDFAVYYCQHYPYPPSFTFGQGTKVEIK	0.00757
L3.PY/L1.PH/H2.QR: anti-BCMA antibody (antibody, V domains shown) VH: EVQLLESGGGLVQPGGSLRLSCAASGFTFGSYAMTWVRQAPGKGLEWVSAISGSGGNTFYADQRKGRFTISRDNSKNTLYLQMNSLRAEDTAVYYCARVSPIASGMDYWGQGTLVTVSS VL: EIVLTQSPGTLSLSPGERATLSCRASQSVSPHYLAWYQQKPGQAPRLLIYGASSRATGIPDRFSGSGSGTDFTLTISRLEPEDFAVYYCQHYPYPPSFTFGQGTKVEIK	0.00436
L3.PY/H2.DY: anti-BCMA antibody (antibody, V domains shown) VH: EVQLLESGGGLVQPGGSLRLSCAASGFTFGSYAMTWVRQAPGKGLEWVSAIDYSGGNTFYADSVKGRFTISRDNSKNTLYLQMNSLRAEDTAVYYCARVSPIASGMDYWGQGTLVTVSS VL: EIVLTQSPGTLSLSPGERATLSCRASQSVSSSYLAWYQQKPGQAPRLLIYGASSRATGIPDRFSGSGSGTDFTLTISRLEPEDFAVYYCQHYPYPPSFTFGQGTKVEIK	0.00618
L3.PY/L1.AH/H2.QR: anti-BCMA antibody (antibody, V domains shown) VH: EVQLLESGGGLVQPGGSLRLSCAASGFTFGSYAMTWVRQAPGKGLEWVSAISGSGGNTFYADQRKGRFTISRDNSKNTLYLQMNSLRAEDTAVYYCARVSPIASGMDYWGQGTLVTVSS VL: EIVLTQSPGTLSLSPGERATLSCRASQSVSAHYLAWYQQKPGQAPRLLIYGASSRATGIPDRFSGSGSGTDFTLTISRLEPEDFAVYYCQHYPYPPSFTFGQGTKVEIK	0.00491
L3.PY/L1.AH/H3.AE: anti-BCMA antibody (antibody, V domains shown) VH: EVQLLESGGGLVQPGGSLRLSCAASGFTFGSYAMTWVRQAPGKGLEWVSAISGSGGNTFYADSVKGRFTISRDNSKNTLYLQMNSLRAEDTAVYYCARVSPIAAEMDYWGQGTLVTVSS VL: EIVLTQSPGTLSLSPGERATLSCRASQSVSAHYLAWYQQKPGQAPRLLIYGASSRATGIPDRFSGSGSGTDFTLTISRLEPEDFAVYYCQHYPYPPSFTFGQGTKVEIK	0.00356

Could you report kd (1/s) cyBCMA @37° C. for every entry in the following list?
1. L3.PY/L1.PS/H2.HA: anti-BCMA antibody (antibody, V domains shown) VH: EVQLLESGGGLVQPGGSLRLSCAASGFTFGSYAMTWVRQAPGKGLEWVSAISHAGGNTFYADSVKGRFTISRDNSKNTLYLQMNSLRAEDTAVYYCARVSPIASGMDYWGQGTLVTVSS VL: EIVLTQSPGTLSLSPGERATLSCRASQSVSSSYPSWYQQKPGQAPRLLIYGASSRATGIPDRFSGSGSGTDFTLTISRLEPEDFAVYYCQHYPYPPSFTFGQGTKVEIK
2. L3.PY/L1.PS/H3.TAQ: anti-BCMA antibody (antibody, V domains shown) VH: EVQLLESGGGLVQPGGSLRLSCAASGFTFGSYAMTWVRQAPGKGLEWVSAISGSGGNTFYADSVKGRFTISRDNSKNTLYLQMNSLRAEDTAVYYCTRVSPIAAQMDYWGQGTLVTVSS VL: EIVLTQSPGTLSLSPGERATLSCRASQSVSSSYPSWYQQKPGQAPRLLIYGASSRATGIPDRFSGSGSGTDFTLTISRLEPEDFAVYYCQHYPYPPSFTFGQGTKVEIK
3. L3.PY/H3.YA: anti-BCMA antibody (antibody, V domains shown) VH: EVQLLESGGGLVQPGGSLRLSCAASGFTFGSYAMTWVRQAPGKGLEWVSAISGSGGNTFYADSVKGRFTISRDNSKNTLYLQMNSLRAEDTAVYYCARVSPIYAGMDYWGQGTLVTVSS VL: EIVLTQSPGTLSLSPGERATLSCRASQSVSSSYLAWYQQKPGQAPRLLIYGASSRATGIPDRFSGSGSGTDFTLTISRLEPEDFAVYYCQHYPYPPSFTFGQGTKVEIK

## Output
0.00269
0.00552
0.0054

## Input # return recorded kd (1/s) cyBCMA @37° C. for entry L3.PY/L3.KY/H2.QR: anti-BCMA antibody (antibody, V domains shown) VH: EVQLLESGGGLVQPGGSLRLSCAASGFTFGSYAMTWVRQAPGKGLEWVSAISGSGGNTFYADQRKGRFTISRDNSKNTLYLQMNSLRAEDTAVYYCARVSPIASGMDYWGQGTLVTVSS VL: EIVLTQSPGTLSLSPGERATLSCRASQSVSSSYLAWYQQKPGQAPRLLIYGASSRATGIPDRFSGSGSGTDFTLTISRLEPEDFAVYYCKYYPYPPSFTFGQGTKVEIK
## Output 0.00774
